experimentalSystem: human ETA receptors (Homo sapiens, UniProt P25101)
Construct: endogenous in cells; host or cells: TE 671 cells (ATCC HTB 139), membrane preparation
Sequence (P25101 21-427): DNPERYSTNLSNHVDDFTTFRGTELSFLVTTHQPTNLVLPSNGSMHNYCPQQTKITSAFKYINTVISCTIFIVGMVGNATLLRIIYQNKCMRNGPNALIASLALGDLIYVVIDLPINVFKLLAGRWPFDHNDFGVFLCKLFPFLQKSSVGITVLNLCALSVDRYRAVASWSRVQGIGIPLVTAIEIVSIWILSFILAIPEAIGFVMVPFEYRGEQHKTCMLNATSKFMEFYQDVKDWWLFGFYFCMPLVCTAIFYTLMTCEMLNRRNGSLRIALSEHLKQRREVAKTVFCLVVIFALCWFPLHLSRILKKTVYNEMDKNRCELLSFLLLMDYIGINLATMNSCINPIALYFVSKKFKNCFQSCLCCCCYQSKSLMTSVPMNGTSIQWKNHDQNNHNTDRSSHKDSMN
experimentalDetails: Endothelin binding inhibition, Binding Test #1: competition with 125I-ET-1 for ETA receptors on TE 671 cell membranes
testContext: incubation at 24° C. (values marked †)
Experimental: Cells from multiple flasks were collected by scraping, pooled and centrifuged for 10 min at 190×g. The cells were resuspended in phosphate buffered saline (PBS) containing 10 mM EDTA using a Tenbroeck homogenizer. […] The supernatant, containing unbound radioactivity, was decanted and the pellet counted on a Genesys multiwell gamma counter. The degree of inhibition of binding (D) was calculated according to the following equation: [formula] […]
resultType: IC50 (nM)

A. COc1ccc(NC(=O)c2sccc2S(=O)(=O)Nc2onc(C)c2Cl)c(OC)c1
B. Cc1cc(C)c(OCc2sccc2S(=O)(=O)Nc2onc(C)c2Br)c(C)c1
Task: Hey, between A and B which has a smaller measured IC50? Bench note: the answer is the label of the chosen record.
Result: B
(B: 56.2 nM, A: 158 nM)

a. COc1ccc(Cc2sc3ccccc3c2S(=O)(=O)Nc2onc(C)c2Br)cc1
b. Cc1ccc(OCc2ccsc2S(=O)(=O)Nc2onc(C)c2Br)cc1
c. CCCc1cc2c(cc1OCc1sccc1S(=O)(=O)Nc1onc(C)c1Br)OCO2
Task: Arrange by IC50, high to low. Would you mind listing the labels in the order asked for?
Result: b, c, a
(b: 1640 nM, c: 107 nM, a: 51 nM)

1. Cc1cc2c(cc1C(C)C(=O)c1sccc1S(=O)(=O)Nc1onc(C)c1Cl)OCO2 (stereo not shown)
2. COc1cccc(OC(=O)c2sccc2S(=O)(=O)Nc2onc(C)c2Br)c1
Task: Return label of the item with the larger IC50. Candidates: 1 , 2 . Kindly state the label of the option you pick.
Result: 2
(2: 790 nM, 1: 85.3 nM)

P. Cc1noc(NS(=O)(=O)c2ccsc2C(=O)Nc2ccc3c(c2)OCO3)c1Cl
Q. COc1ccccc1OC(=O)c1sccc1S(=O)(=O)Nc1onc(C)c1Br
R. Cc1cc2c(cc1C(CC(=O)O)C(=O)c1sccc1S(=O)(=O)Nc1onc(C)c1Cl)OCO2 (stereo not shown)
S. Cc1noc(NS(=O)(=O)c2sccc2Cc2ccccc2)c1Br
Task: Thanks in advance: please rank these 4 entries by IC50, highest to lowest. Please respond with the labels ordered as the question requires.
Result: S, Q, R, P
(S: 1600 nM, Q: 761 nM, R: 81.1 nM, P: 7.3 nM)

I. Cc1cc(C)c(OCc2ccsc2S(=O)(=O)Nc2onc(C)c2Br)c(C)c1
II. Cc1noc(NS(=O)(=O)c2sccc2-c2ccc3c(c2)OCO3)c1Br
III. Cc1onc(NS(=O)(=O)c2c(Cc3ccc4c(c3)OCO4)sc3ccccc23)c1Cl
Task: Reorder the items by IC50, least to greatest. Returns: the labels listed in the requested order.
Result: III, I, II

---

experimentalSystem: human ETB receptor (Homo sapiens, UniProt P24530)
Construct: expressed in transfected cells; host or cells: COS7 cells
Sequence (P24530 27-442): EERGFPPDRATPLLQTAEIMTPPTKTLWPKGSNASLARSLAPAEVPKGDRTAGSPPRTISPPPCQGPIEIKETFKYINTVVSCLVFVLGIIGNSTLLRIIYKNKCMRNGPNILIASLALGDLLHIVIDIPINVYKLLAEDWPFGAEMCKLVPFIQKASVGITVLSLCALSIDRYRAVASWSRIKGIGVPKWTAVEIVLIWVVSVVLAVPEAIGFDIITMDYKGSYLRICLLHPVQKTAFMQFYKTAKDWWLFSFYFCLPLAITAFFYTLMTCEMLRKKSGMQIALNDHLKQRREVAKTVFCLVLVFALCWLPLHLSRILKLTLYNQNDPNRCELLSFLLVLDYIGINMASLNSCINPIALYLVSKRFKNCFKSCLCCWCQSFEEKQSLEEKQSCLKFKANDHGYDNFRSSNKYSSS
experimentalDetails: Endothelin binding inhibition, Binding Test #2: competition with 125I-ET-1 for ETB receptors on transfected COS7 cell membranes
testContext: incubation at 24° C. (values marked †)
Text: Compounds that are potential endothelin antagonists are identified by testing their ability to compete with ^125I-labeled ET-1 for binding to human ETA receptors or ETB receptors present on isolated cell membranes. The effectiveness of the test compound as an antagonist or agonist of the biological tissue response of endothelin can also be assessed by measuring the effect on endothelin induced contraction of isolated rat thoracic aortic rings. […]
resultType: IC50 (µM)

Task: Look up and report measured IC50 for this entry: Cc1ccc(CCc2ccsc2S(=O)(=O)Nc2onc(C)c2Br)cc1
Result: 9.4

Task: Please list IC50 recorded for the molecule Cc1cc2c(cc1CC(=O)c1sccc1S(=O)(=O)Nc1onc(C)c1Cl)OCO2
Result: 52.8

a. COc1cc(C#N)c(NC(=O)c2sccc2S(=O)(=O)Nc2onc(C)c2Cl)c(OC)c1OC
b. CCCc1ccc(-c2ccsc2S(=O)(=O)Nc2onc(C)c2Br)c(C)c1
c. Cc1noc(NS(=O)(=O)c2ccsc2C(=O)Cc2ccc3c(c2)OCO3)c1C
d. Cc1cc(CC(C)C)ccc1-c1ccsc1S(=O)(=O)Nc1onc(C)c1Br
e. Cc1cc(C)c(NC(=O)c2sccc2S(=O)(=O)Nc2onc(C)c2Cl)c(C)c1CC#N
Task: Which order do these items take when sorted by rising IC50? List them. Rank them, then answer with their labels in that order.
Result: d, b, a, c, e

I. Cc1noc(NS(=O)(=O)c2ccsc2NC(=O)Nc2ccc3c(c2)OCO3)c1Br
II. Cc1ccc(CC(=O)c2sccc2S(=O)(=O)Nc2onc(C)c2Br)c(C)c1
Task: Param pair: I , II . Output: the one whose IC50 is numerically greater. Pick one and reply with its label.
Result: II

I. COc1ccc(OC(=O)c2sccc2S(=O)(=O)Nc2onc(C)c2Cl)cc1
II. CC(=O)OCc1c(C)cc(C)c(NC(=O)c2sccc2S(=O)(=O)Nc2onc(C)c2Cl)c1C
Task: Compare the recorded IC50 of I and II ; state which is larger. # answer = label of selected item
Result: II

A. Cc1noc(NS(=O)(=O)c2ccsc2CC(O)c2ccc3c(c2)OCO3)c1Cl (stereo not drawn)
B. COC(=O)c1cc(C)c(NC(=O)c2sccc2S(=O)(=O)Nc2onc(C)c2Cl)c(C)c1
Task: Lab log: flag the item ( A or B ) with the smaller IC50 figure. Please reply using the label of the selected record.
Result: B

A. Cc1noc(NS(=O)(=O)c2ccc(C(=O)Nc3ccccc3)s2)c1Cl
B. Cc1cc(C)c(C=CCc2ccsc2S(=O)(=O)Nc2onc(C)c2Br)c(C)c1
C. Cc1cc(C)c(S(N)(=O)=O)c(C)c1NC(=O)c1sccc1S(=O)(=O)Nc1onc(C)c1Cl
Task: Put the entries in order of IC50, starting with the largest number. # list labels per requested ordering
Result: A, C, B

1. Cc1noc(NS(=O)(=O)c2ccsc2C(=O)NS(=O)(=O)c2cccc3c(N(C)C)cccc23)c1Br
2. Cc1cc(C)c(CNC(=O)c2sccc2S(=O)(=O)Nc2onc(C)c2Cl)c(C)c1CC#N
Task: Hi there! Just curious which has the higher IC50 between 1 and 2 . To answer, give the label that identifies your chosen option.
Result: 2

A. Cc1ccc(OC(=O)c2sccc2S(=O)(=O)Nc2onc(C)c2Br)c(C)c1
B. Cc1noc(NS(=O)(=O)c2sccc2Cc2ccc3c(c2)OCO3)c1Br
C. Cc1cc(NC(=O)c2sccc2S(=O)(=O)Nc2onc(C)c2Cl)no1
Task: Falling order of IC50, please. Answer by naming the labels in the order asked.
Result: C, A, B

I. Cc1noc(NS(=O)(=O)c2c(-c3ccc4c(c3)OCO4)sc3ccccc23)c1Cl
II. Cc1noc(NS(=O)(=O)c2ccsc2CC2(c3ccc4c(c3)OCO4)OCCO2)c1Cl
Task: Of I and II , whose reported IC50 is the larger number? // caller expects the label of the chosen entry
Result: I

A. COc1ccc(NC(=O)c2sccc2S(=O)(=O)Nc2onc(C)c2Cl)c(OC)c1
B. Cc1cc(C)c(NC(=O)c2sccc2S(=O)(=O)Nc2noc(C)c2Cl)c(C)c1CC#N
Task: Compare A and B by numeric IC50 and name the larger one. Please reply using the label of the selected record.
Result: A

---

experimentalSystem: human ETA receptors (Homo sapiens, UniProt P25101)
Construct: endogenous in cells; host or cells: TE 671 cells (ATCC HTB 139), membrane preparation
experimentalDetails: Endothelin binding inhibition, Binding Test #1: competition with 125I-ET-1 for ETA receptors on TE 671 cell membranes
testContext: incubation at 24° C. (values marked †)
resultType: IC50 (nM)

Examples from the recorded data:
Task: Fill in reported IC50 for this entry: Cc1cc2c(cc1CC(=O)c1sccc1S(=O)(=O)Nc1onc(C)c1C)OCO2
Result: 3.28

Task: Give the reported value of IC50 for this record: Cc1noc(NS(=O)(=O)c2ccsc2C(=O)Oc2ccc3c(c2)OCO3)c1Cl
Result: 6.5

Task: Kindly indicate its recorded IC50. Item: Cc1cc2c(cc1CC(=O)c1sccc1S(=O)(=O)Nc1onc(C)c1Cl)OCO2
Result: 14.6

Task: In one line, give reported IC50 of the entry Cc1noc(NS(=O)(=O)c2c(Cc3ccc(N(C)C)cc3)sc3ccccc23)c1Cl .
Result: 41

Task: # return recorded IC50 for input Cc1noc(NS(=O)(=O)c2ccsc2C(=O)Nc2ccccc2O)c1Br
Result: 13

Task: Tell us which IC50 value is on record for Cc1cc(C)c(NC(=O)c2sccc2S(=O)(=O)Nc2onc(C)c2C)c(C)c1CO
Result: 1.11

Task: Please give measured IC50 of the following entry: Cc1noc(NS(=O)(=O)c2c(Cc3ccc(Cl)cc3)sc3ccccc23)c1C
Result: 210

Task: Look up IC50 of CCCc1cc2c(cc1OC(=O)c1sccc1S(=O)(=O)Nc1onc(C)c1Br)OCO2 and report it.
Result: 138

Task: Read the entry Cc1cc(C)c(C=CCc2ccsc2S(=O)(=O)Nc2onc(C)c2Br)c(C)c1 and write its reported IC50.
Result: 49

Task: Look up and state reported IC50 for Cc1noc(NS(=O)(=O)c2csc(-c3ccccc3C=O)c2)c1Br
Result: 12300

1. Cc1cc(C)c(NC(=O)c2sccc2S(=O)(=O)Nc2onc(C)c2Cl)c(C)c1CO
2. COC(=O)c1cc(OC)c(OC)cc1NC(=O)c1sccc1S(=O)(=O)Nc1onc(C)c1Cl
Task: Select the item with the higher value of IC50 from the options 1 and 2 listed. Provide the label of your selected option as the answer.
Result: 2

a. Cc1ccc(CC(=O)c2sccc2S(=O)(=O)Nc2onc(C)c2Br)c(C)c1
b. CCCc1ccc(-c2ccsc2S(=O)(=O)Nc2onc(C)c2Br)c(C)c1
Task: Larger number for IC50: a , or b ? Provide the label of your selected option as the answer.
Result: b

a. Cc1noc(NS(=O)(=O)c2ccsc2CO)c1Br
b. CC(=O)OCc1c(C)cc(C)c(NC(=O)c2sccc2S(=O)(=O)Nc2onc(C)c2C)c1C
Task: Could you determine which record has the numerically smaller IC50? Candidates: a and b Lab note: record the label of whichever item you select.
Result: b
(b: 0.97 nM, a: 1550 nM)
